Taken from patent EP0511381B1.

- Assay Explanation: Solubility in dichloromethane (saturated solution)
- Assay type: physicochemical
- Details: weight percentage of dye to solvent in a saturated solution
Reported Endpoint: Solubility (wt. %)
Respond numerically; units are wt. % and should not be typed.

Study these solved cases before continuing.
Input: So what's the measured Solubility for this one? CCN(CC)c1ccc2c(c1)OC(C1CCCCC1)=CC2=CC1=C([O-])C(=Cc2cc(C3CCCCC3)[o+]c3cc(N(CC)CC)ccc23)C1=O [Dye F]
Output: 0.4

Input: Param item: CCN(CC)c1ccc2c(c1)OC(c1ccccc1)=CC2=CC1=C([O-])C(=Cc2cc(-c3ccccc3)[o+]c3cc(N(CC)CC)ccc23)C1=O [Control Dye y, reference compound]
Output: 0.02

Others:
Input: Need Solubility of CCN(CC)c1ccc2c(c1)OC(C(C)(C)C)=CC2=CC1=C([O-])C(=Cc2cc(C(C)(C)C)[o+]c3cc(N(CC)CC)ccc23)C1=O [Dye B] , thanks.
Output: 11.5

Input: Now this one: CCN(CC)c1ccc2c(c1)OC(c1ccc(C)cc1C)=CC2=CC1=C([O-])C(=Cc2cc(-c3ccc(C)cc3C)[o+]c3cc(N(CC)CC)ccc23)C1=O [Control Dye z, reference compound]
Output: 0.1
